Values were extracted from the supplement of paper PMC10567573.

So I've got a bunch of sequences here, and I need their protein stability index values.
Procedure Summary: protein stability index of a GFP-peptide fusion (GPS, HEK-293T) (PSI 1-6); higher = more stable;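 further: 24-mer peptide tiles fused after GFP, lentivirally expressed, FACS-sorted into six equal bins by GFP/DsRed ratio, decoded by Illumina sequencing, PSI is the read-weighted mean bin number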
Test Settings: treatment: DMSO; c terminus: a fixed tail appended
One number for each entry.

Seq: VTQMNHIPMHIDHDRNMDWVSTQL [FADS1]
protein stability index: 3.14

Would you be so kind as to report protein stability index for each listed record?
1. SALFAGNEWRRPIIQFVESGDDKN [TRIM29]
2. EAMAEKNRRDVEAWFFSKTEELNK [KRT15]
3. SSALACTLPTLPAKVYVGVKQEIA [NCF4]
4. ITTKTADGKCAYRASYSDGKLKAP [MLH1]

[reply]
[4.37, 4.15, 3.2, 3.78]

# batch size: 3; output protein stability index per entry
1. TFPFKILGDSGLGPWQLNVFVCRV [P2RY14]
2. HASGDASYSAGDSGDAAAQPAFTG [EPB41L3]
3. TPIEVLCENFPEMATYLRYVRRLD [CSNK1G3]

[reply]
1: 3.47; 2: 5.32; 3: 2.39
